So I've got a bunch of molecules here, and I need their EC50 values.
Target: Human TREM2 (Homo sapiens, UniProt Q9NZC2)
Construct: expressed in transfected cells
Sequence (Q9NZC2 19-230): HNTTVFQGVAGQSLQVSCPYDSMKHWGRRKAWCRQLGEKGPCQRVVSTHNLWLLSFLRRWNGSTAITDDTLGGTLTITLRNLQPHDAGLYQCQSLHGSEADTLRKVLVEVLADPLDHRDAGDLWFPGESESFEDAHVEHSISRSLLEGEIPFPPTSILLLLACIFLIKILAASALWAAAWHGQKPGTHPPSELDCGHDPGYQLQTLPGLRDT
Sequence (O43914 22-113 partner): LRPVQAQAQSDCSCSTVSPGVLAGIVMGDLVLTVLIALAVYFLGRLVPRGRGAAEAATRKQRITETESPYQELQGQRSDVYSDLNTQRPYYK
Assay: Human TREM2 activity: cellular phosphorylation of Syk (AlphaLISA SureFire Ultra p-SYK) in HEK293/DAP12+TREM2 stable cell line
Format: cell-based
Conditions: phospho-Syk AlphaLISA signal, HEK293/DAP12+TREM2 cells; concentration giving 50% of maximal response; read-out: EC50

Input: Identify EC50 associated with the molecule C[C@H]1CN(c2nc(-c3ccc(F)cc3F)c3nc(C(F)(F)F)n(C)c(=O)c3n2)C[C@@H](c2cnn(C3CC3)c2)O1 (single isomer, unassigned) [Example 183A]
Output: 1 to 10 nM

Input: Identify EC50 associated with the molecule Cc1nc2c(-c3ccc(Cl)cc3F)nc(N3CCn4nc(C(F)(F)F)nc4C3)nc2c(=O)n1C
Output: 10 to 100 nM

Input: Identify EC50 associated with the molecule Cc1nc2c(-c3ccc(C(F)(F)F)cc3F)nc(N3C[C@@H](c4cnn(C)c4)OC4(CC4)C3)cc2c(=O)n1C (single isomer, unassigned) [Example 145A]
Output: 1 to 10 nM
